The entries below come with measured pIC50 values attached.
- targetOrTestSystem: UniProtKB P27487
- Sequence (P27487 31-766): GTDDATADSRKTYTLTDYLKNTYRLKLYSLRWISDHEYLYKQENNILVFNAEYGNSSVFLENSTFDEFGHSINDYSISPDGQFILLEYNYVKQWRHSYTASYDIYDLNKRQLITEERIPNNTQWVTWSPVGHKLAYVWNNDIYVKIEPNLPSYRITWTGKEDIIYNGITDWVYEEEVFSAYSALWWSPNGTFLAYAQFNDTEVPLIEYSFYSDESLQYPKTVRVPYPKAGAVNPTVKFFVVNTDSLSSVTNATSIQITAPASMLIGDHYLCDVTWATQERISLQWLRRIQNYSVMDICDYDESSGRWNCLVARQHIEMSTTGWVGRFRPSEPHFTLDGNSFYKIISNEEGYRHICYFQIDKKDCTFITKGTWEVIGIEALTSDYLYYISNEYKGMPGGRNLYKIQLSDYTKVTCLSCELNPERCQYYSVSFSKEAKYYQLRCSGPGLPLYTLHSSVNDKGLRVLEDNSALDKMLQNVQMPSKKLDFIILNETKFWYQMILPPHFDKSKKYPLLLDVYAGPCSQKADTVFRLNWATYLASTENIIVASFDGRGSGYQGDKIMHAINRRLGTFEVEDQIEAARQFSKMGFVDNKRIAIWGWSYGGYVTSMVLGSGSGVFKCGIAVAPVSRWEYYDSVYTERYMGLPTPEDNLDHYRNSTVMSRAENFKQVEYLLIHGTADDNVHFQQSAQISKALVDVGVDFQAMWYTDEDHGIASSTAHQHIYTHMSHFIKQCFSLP
- method: DPP-IV activity assay (fluorogenic or colorimetric substrate)
- measurementSetup: natural human DPP-IV from human plasma pool or recombinant human DPP-IV; 37° C., pH 7.8
pIC50: −log10 of the molar value.
experimentalReadout: pIC50

compound: CC1=CC(=O)N([C@@H]2CCCC[C@H]2N)C1 (relative stereo)
targetOrTestSystem: UniProtKB P27487
numericResult: 6.14

compound: N[C@@H]1CCCCC[C@H]1c1cc(Cl)ccc1Cl (relative stereo)
targetOrTestSystem: UniProtKB P27487
numericResult: 6.14

compound: Cc1ccc(C)c([C@@H]2CCCC[C@H]2N)c1 (relative stereo)
targetOrTestSystem: UniProtKB P27487
numericResult: 6.80

compound: N[C@@H]1CCCC[C@@H]1c1cc(Cl)ccc1Cl (relative stereo)
targetOrTestSystem: UniProtKB P27487
numericResult: 6.89
